biological target: human GLP-1R (Homo sapiens (Human), UniProt P43220, L260F); assay: CHO GLP-1R Clone C6 - Assay 2 (HTRF cAMP agonist assay, low receptor density); conditions: read-out: Assay 2 EC50; CHO GLP-1R Clone C6 (low receptor density), cAMP HTRF; geometric mean
Sequence (P43220 24-463 L260F): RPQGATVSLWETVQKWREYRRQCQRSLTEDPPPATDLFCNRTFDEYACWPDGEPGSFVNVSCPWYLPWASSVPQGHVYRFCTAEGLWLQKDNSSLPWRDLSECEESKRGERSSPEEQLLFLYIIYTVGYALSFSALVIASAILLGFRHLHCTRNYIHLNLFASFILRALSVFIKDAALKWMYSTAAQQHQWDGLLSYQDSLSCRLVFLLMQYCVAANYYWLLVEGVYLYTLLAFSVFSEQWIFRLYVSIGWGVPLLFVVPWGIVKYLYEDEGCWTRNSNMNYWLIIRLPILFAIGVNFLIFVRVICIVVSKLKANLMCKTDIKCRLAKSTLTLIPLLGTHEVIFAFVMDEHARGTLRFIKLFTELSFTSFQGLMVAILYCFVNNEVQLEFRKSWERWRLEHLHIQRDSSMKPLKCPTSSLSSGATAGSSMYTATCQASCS
pEC50: −log10 of the molar value.
The following compounds are listed with their measured pEC50 values.

Compound	Comparator	pEC50
COCCn1c(CN2CCC(c3cccc4c3OC(C)(c3ccc(Cl)cn3)O4)CC2)nc2ccc(C(=O)O)cc21 (stereo not drawn)	<	4.70
CC1(c2ccc(Cl)cc2F)Oc2cccc(C3CCN(Cc4nc5ccc(C(=O)O)cc5n4CCn4cccn4)CC3)c2O1 (stereo not drawn)	=	7.28
COCCn1cnnc1Cn1c(CN2CCC(c3cccc4c3OC(C)(c3ccc(Cl)cc3F)O4)CC2)nc2ccc(C(=O)O)cc21 (stereo not drawn)	=	7.01
Cn1ncnc1Cn1c(CN2CCC(c3cccc4c3OC(C)(c3ccc(Cl)cc3F)O4)CC2)nc2ccc(C(=O)O)cc21 (stereo not drawn)	=	6.30
CC1(c2ccc(Cl)cc2F)Oc2cccc(C3CCN(Cc4nc5ccc(C(=O)O)cc5n4Cc4cccnc4)CC3)c2O1 (stereo not drawn)	=	7.96
COCCn1c(CN2CCC(c3cccc4c3OC(C)(c3ccc(C#N)cc3)O4)CC2)nc2ccc(C(=O)O)cc21 (stereo not drawn)	=	6.96

---

target: human GLP-1R (Homo sapiens (Human), UniProt P43220, L260F); assay: CHO GLP-1R Clone C6 - Assay 2 (HTRF cAMP agonist assay, low receptor density); details: read-out: Assay 2 Emax (%), CHO GLP-1R Clone C6 (low receptor density); arithmetic mean, relative to saturating GLP-1 (1 μM)
Quick rule: Emax of at least 90% means criterion met, below that means criterion not met.

Molecule	Cat
CC1(c2ccc(Cl)cc2F)Oc2cccc(C3CCN(Cc4nc5ccc(C(=O)O)cc5n4Cc4cnco4)CC3)c2O1 (stereo not drawn) [Example 69]	criterion met
COCCn1c(CN2CCC(c3cccc4c3OC(C)(c3ccc(Cl)cn3)O4)CC2)nc2ccc(C(=O)O)cc21.N (stereo not drawn) [Example 92]	criterion not met
COCc1cc(Cn2c(CN3CCC(c4cccc5c4OC(C)(c4ccc(Cl)cc4F)O5)CC3)nc3ccc(C(=O)O)cc32)[nH]n1 (stereo not drawn) [Example 68]	criterion met
COCCn1c(CN2CCC(c3cccc4c3OC(C)(c3ccc(C#N)cn3)O4)CC2)nc2ccc(C(=O)O)cc21 (stereo not drawn) [Example 94]	criterion not met
COCCn1c(C2CC23CCN(c2cccc4c2OC(C)(c2ccc(Cl)cc2F)O4)CC3)nc2ccc(C(=O)O)cc21 (single isomer, unassigned) [Example 16]	criterion not met
COCCn1c(CN2CCC(c3cccc4c3OC(C)(c3ccccc3Cl)O4)CC2)nc2ccc(C(=O)O)cc21 (stereo not drawn) [Example 86]	criterion met
CC1(c2ccc(Cl)cc2F)Oc2cccc(C3CCN(Cc4nc5ccc(C(=O)O)cc5n4Cc4cn[nH]c4)CC3)c2O1 (stereo not drawn) [Example 73]	criterion met
COCCn1c(CN2CCC(c3cccc4c3OC(c3ccc(Cl)cc3F)O4)CC2)nc2ccc(C(=O)O)cc21 (stereo not drawn) [Example 20]	criterion met
CC1(c2ccc(Cl)cc2F)Oc2cccc(C3CCN(Cc4nc5ccc(C(=O)O)cc5n4CCn4cccn4)CC3)c2O1 (stereo not drawn) [Example 53]	criterion not met
CC1(c2ccc(Cl)cc2F)Oc2cccc(C3CCN(Cc4nc5ccc(C(=O)O)cc5n4C[C@@H]4CCCO4)CC3)c2O1 (stereo partly drawn) [Example 79]	criterion not met
COCCn1c(CN2CCC(c3cccc4c3OC(C)(c3ccccc3OC)O4)CC2)nc2ccc(C(=O)O)cc21 (stereo not drawn) [Example 37]	criterion not met
Cc1nccn1CCn1c(CN2CCC(c3cccc4c3OC(C)(c3ccc(Cl)cc3F)O4)CC2)nc2ccc(C(=O)O)cc21 (stereo not drawn) [Example 62]	criterion met
CNC(=O)Cn1c(CN2CCC(c3cccc4c3OC(C)(c3ccc(Cl)cc3F)O4)CC2)nc2ccc(C(=O)O)cc21 (stereo not drawn) [Example 52]	criterion not met

---

molecular target: human GLP-1R (Homo sapiens (Human), UniProt P43220, L260F); assay: CHO GLP-1R Clone C6 - Assay 2 (HTRF cAMP agonist assay, low receptor density); conditions: read-out: Assay 2 EC50; CHO GLP-1R Clone C6 (low receptor density), cAMP HTRF; geometric mean
The following compounds are listed with their measured EC50 values.

Compound	Target Or Test System	EC50 / nM
Cc1nccn1CCn1c(CN2CCC(c3cccc4c3OC(C)(c3ccc(Cl)cc3F)O4)CC2)nc2ccc(C(=O)O)cc21 (stereo not drawn)	human GLP-1R (Homo sapiens (Human), UniProt P43220, L260F)	82
COCCn1c(CN2CCC(c3cccc4c3OC(C)(c3ccc(C)cc3)O4)CC2)nc2ccc(C(=O)O)cc21 (stereo not drawn)	human GLP-1R (Homo sapiens (Human), UniProt P43220, L260F)	100
COCCn1c(CN2CCC(c3cccc4c3OC(C)(c3ccc(C(F)(F)F)cc3)O4)CC2)nc2ccc(C(=O)O)cc21 (stereo not drawn)	human GLP-1R (Homo sapiens (Human), UniProt P43220, L260F)	130

---

The following molecules are listed with their measured Emax values.
biological target: human GLP-1R (Homo sapiens, UniProt P43220, G168S); experiment: CHO GLP-1R Clone H6 - Assay 1 (HTRF cAMP agonist assay); assay type: cell-based; conditions: CHO GLP-1R Clone H6; arithmetic mean, relative to saturating GLP-1 (1 μM)
Sequence (P43220 24-463 G168S limits assumed): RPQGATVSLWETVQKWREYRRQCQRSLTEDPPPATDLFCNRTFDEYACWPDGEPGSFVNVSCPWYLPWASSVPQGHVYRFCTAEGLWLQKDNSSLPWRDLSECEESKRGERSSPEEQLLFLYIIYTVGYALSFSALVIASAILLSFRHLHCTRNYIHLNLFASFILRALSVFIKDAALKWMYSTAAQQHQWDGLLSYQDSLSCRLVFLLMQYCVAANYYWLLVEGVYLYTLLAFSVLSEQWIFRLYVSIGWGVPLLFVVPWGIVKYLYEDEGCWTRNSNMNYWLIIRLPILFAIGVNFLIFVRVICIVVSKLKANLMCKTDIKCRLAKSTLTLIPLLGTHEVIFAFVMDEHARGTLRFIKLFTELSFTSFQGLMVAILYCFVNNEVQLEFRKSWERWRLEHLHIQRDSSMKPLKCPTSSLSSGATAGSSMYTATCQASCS

Molecule	Emax
COCCn1c(CN2CCC(c3cccc4c3OC(C)(c3cccc(C)n3)O4)CC2)nc2ccc(C(=O)O)cc21 (stereo not drawn)	85%
COCCn1c(CN2CCC(c3cccc4c3OC(c3ccc(C#N)cc3F)O4)CC2)nc2ccc(C(=O)O)cc21 (stereo not drawn)	98%
COCCn1c(CN2CCC(c3cccc4c3OC(C)(c3ccc(C)nc3)O4)CC2)nc2ccc(C(=O)O)cc21 (stereo not drawn)	93%

---

molecular target: human GLP-1R (Homo sapiens (Human), UniProt P43220, L260F); assay: CHO GLP-1R Clone C6 - Assay 2 (HTRF cAMP agonist assay, low receptor density); conditions: read-out: Assay 2 EC50; CHO GLP-1R Clone C6 (low receptor density), cAMP HTRF; geometric mean
Property Name: EC50 (nM)

Compound	Value Reported
COCCn1c(CN2CCC(c3cccc4c3OC(C)(c3ccc(C)nc3)O4)CC2)nc2ccc(C(=O)O)cc21 (centres unmarked)	1700
CC1(c2ccc(Cl)cc2F)Oc2cccc(C3CCN(Cc4nc5ccc(C(=O)O)cc5n4Cc4ncco4)CC3)c2O1 (centres unmarked)	6.9
CC1(c2ccc(Cl)cc2F)Oc2cccc(C3CCN(Cc4nc5ccc(C(=O)O)cc5n4Cc4cn[nH]c4)CC3)c2O1 (centres unmarked)	10
Cn1cnnc1Cn1c(CN2CCC(c3cccc4c3OC(C)(c3ccc(Cl)cc3F)O4)CC2)nc2ccc(C(=O)O)cc21 (centres unmarked)	78
COCCn1c(CN2CCC(c3cccc4c3OC(C)(c3ccc(OC)cc3)O4)CC2)nc2ccc(C(=O)O)cc21 (centres unmarked)	450

---

biological target: human GLP-1R (Homo sapiens, UniProt P43220, G168S); assay: CHO GLP-1R Clone H6 - Assay 1 (HTRF cAMP agonist assay); assay type: cell-based; details: CHO GLP-1R Clone H6; arithmetic mean, relative to saturating GLP-1 (1 μM)
The following molecules are listed with their measured Emax values.
Property Name: Emax (%)

Molecule	Property Name	Unit Spec	Value Reported
COCCn1c(CN2CCC(c3cccc4c3OC(C)(c3ccccc3Cl)O4)CC2)nc2ccc(C(=O)O)cc21 (stereo not shown)	Emax	%	91
CCn1ccnc1Cn1c(CN2CCC(c3cccc4c3OC(C)(c3ccc(Cl)cc3F)O4)CC2)nc2ccc(C(=O)O)cc21 (stereo not shown)	Emax	%	80
CC1(c2ccc(Cl)cc2F)Oc2cccc(C3CCN(Cc4nc5ccc(C(=O)O)cc5n4C4CCOC4)CC3)c2O1 (stereo not shown)	Emax	%	79
O=C(O)c1ccc2nc(CN3CCC(c4cccc5c4O[C@@H](c4ccc(Cl)cc4F)O5)CC3)n(C[C@@H]3CCO3)c2c1	Emax	%	89
CCn1nncc1Cn1c(CN2CCC(c3cccc4c3OC(C)(c3ccc(Cl)cc3F)O4)CC2)nc2ccc(C(=O)O)cc21 (stereo not shown)	Emax	%	93
COCc1cc(Cn2c(CN3CCC(c4cccc5c4OC(C)(c4ccc(Cl)cc4F)O5)CC3)nc3ccc(C(=O)O)cc32)[nH]n1 (stereo not shown)	Emax	%	89
COCCn1c(CN2CCC(c3cccc4c3OC(C)(c3ccc(C)cc3)O4)CC2)nc2ccc(C(=O)O)cc21 (stereo not shown)	Emax	%	93
CC1(c2ccc(C#N)cc2F)Oc2cccc(C3CCN(Cc4nc5ccc(C(=O)O)cc5n4Cc4ncco4)CC3)c2O1 (stereo not shown)	Emax	%	97
CN(C)CCn1c(CN2CCC(c3cccc4c3OC(C)(c3ccc(Cl)cc3F)O4)CC2)nc2ccc(C(=O)O)cc21 (stereo not shown)	Emax	%	83
COCCn1c(CN2CCC(c3cccc4c3OC(C)(c3cccc(C(F)(F)F)c3)O4)CC2)nc2ccc(C(=O)O)cc21 (stereo not shown)	Emax	%	87
Cn1ncnc1Cn1c(CN2CCC(c3cccc4c3OC(C)(c3ccc(Cl)cc3F)O4)CC2)nc2ccc(C(=O)O)cc21 (stereo not shown)	Emax	%	86
CC1(c2ccc(Cl)cn2)Oc2cccc(C3CCN(Cc4nc5ccc(C(=O)O)cc5n4C[C@@H]4CCO4)CC3)c2O1 (stereo partly shown) [Example 95]	Emax	%	77
COCCn1cnnc1Cn1c(CN2CCC(c3cccc4c3OC(C)(c3ccc(Cl)cc3F)O4)CC2)nc2ccc(C(=O)O)cc21 (stereo not shown)	Emax	%	100
CNC(=O)Cn1c(CN2CCC(c3cccc4c3OC(C)(c3ccc(Cl)cc3F)O4)CC2)nc2ccc(C(=O)O)cc21 (stereo not shown)	Emax	%	85
COCCn1c(CN2CCC(c3cccc4c3OC(C)(c3ccc(Cl)cc3F)O4)CC2)nc2ncc(C(=O)O)cc21 (stereo not shown)	Emax	%	94
COCCn1c(CN2CCC(c3cccc4c3OC(C)(c3ccc(F)c(F)c3)O4)CC2)nc2ccc(C(=O)O)cc21 (stereo not shown)	Emax	%	78
